Values were extracted from patent US8367702B2.

Recorded melting point, one value per entry.

Consider the worked cases shown below.
| entry-smiles | melting point |
| --- | --- |
| Cc1c(COCC(C)(C)COC(=O)N2CCOCC2)[nH]c2ccccc2c1=O | 155 to 157 °C |
| Cc1c(COCCCCOc2cccc3c2OC(C)(C)C3)[nH]c2ccccc2c1=O | 139 to 140 °C |

Input Cc1c(CO[C@H]2CC[C@H](N3CCCC3=O)CC2)[nH]c2ccccc2c1=O . Output melting point: 216 to 217 °C

Input Cc1c(COc2ncc(C(=O)NC3CCCC3)cn2)[nH]c2ccccc2c1=O . Output melting point: > 231 °C (dec.)

====

Recorded melting point, one value per entry.

Consider the worked cases shown below.
| entry-smiles | measured-quantity | value |
| --- | --- | --- |
| Cc1c(CCCCCOc2ccc(F)cc2F)[nH]c2ccc(F)cc2c1=O | melting point | 201 to 203 °C |
| Cc1c(COCCC2(O)CCCCC2)[nH]c2ccccc2c1=O | melting point | 125 to 127 °C |
| Cc1c(CCC2CCN(C(=O)CC(C)(C)O)CC2)[nH]c2ccccc2c1=O | melting point | 203 to 205 °C |

Input Cc1c(COc2cc(OCCC3(O)CCOCC3)ccn2)[nH]c2ccccc2c1=O . Output melting point: 189 to 190 °C

Input Cc1c(CCC2CCN(C(=O)C3CC3)CC2)[nH]c2ccccc2c1=O . Output melting point: 222 to 224 °C

Input CCNC(=O)N[C@H]1CC[C@H](OCc2[nH]c3ccccc3c(=O)c2C)CC1 . Output melting point: > 270 °C (dec.)

====

# Test system: NADPH oxidase
# assay-details: Inhibitory activity on ROS production derived from NADPH oxidase (HUVECs, nitrotetrazolium blue)
# Format: cell-based, Human
# condition-parameters: 1.0 μM test compound, 25 mM glucose, 200 μM NADPH, 2 hours
Recorded Inh(%) ROS production inhibition rate, one value per entry.
// note: answer is a bare numeric in %

Consider the worked cases shown below.
| entry-smiles | measured-quantity | value |
| --- | --- | --- |
| Cc1cccc(CNC(=O)OCc2[nH]c3ccccc3c(=O)c2C)c1 | Inh(%) ROS production inhibition rate | 61.6 |
| Cc1c(COc2cccc(N3CCOCC3=O)c2)[nH]c2ccccc2c1=O | Inh(%) ROS production inhibition rate | 88.7 |
| COC(C)(C)CCOCCCCOCc1[nH]c2ccccc2c(=O)c1C | Inh(%) ROS production inhibition rate | 57.3 |
| Cc1c(COCCCCOc2ccc(C#N)cc2)[nH]c2ccccc2c1=O | Inh(%) ROS production inhibition rate | 90.8 |
| CC(=O)N1CCC(COc2cccc(OCc3[nH]c4ccccc4c(=O)c3C)c2)CC1 | Inh(%) ROS production inhibition rate | 101.5 |
| CCS(=O)(=O)N1CCC(CCc2[nH]c3ccccc3c(=O)c2C)CC1 | Inh(%) ROS production inhibition rate | 98.9 |
| Cc1c(COc2cccc(OCCc3ccncc3)c2)[nH]c2ccccc2c1=O | Inh(%) ROS production inhibition rate | 85.3 |
| CCS(=O)(=O)N[C@H]1CC[C@H](OCc2[nH]c3ccccc3c(=O)c2C)CC1 | Inh(%) ROS production inhibition rate | 79.9 |

Input Cc1c(COC(=O)NCCCc2ccccc2)[nH]c2ccccc2c1=O . Output Inh(%) ROS production inhibition rate: 64.2
